Source: patent US20240398812A1

testedOn: TRPML3 (Homo sapiens, UniProt Q8TDD5)
Construct: expressed in transfected cells
Sequence (Q8TDD5 whole entry): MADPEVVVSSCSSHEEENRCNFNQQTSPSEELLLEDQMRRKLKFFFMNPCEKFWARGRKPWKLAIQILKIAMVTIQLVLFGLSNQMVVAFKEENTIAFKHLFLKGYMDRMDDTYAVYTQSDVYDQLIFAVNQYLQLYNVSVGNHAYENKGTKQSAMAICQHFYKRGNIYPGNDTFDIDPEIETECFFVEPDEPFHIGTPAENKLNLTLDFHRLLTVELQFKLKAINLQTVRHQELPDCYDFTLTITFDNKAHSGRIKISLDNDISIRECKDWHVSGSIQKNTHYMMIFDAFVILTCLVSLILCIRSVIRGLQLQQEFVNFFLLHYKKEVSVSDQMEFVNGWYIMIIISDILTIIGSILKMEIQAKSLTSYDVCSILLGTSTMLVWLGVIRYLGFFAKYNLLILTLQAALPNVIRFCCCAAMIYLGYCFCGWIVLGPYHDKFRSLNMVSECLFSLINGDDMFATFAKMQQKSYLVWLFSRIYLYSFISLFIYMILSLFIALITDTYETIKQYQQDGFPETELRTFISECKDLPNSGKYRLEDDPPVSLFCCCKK
testDescription: Fluorescent TRPML3 assay (as for TRPML1)
Format: cell-based
testConditions: Table 3, compounds 101-177
pEC50: −log10 of the molar value.
quantityKind: pEC50

Worked examples, 3 molecules total:
1. CC(C)C(=O)N1CCN(c2ncnc3c2c(-c2ccccc2)cn3-c2cc(C#N)ccn2)C[C@H]1C [Compound 119]    > 7.00
2. C[C@H]1CN(C(=O)C(C)(C)O)CCN1c1ncnc2c1c(N1CCC1)cn2-c1cc(C#N)ccn1 [Compound 162]    5.70 to 6.30
3. CC(C)C(=O)N1CC2(CCN(c3ncnc4c3c(-c3ccccc3F)cn4-c3cc(C#N)ccn3)C2)C1 [Compound 101]    5.70 to 6.30

So, C[C@@H]1CN(c2ncnc3c2c(C2CC2)cn3-c2cc(C#N)ccn2)[C@@H](C)CN1C(=O)CC(C)(C)C [Compound 153] ? Its pEC50 was > 7.00

* * *

testedOn: UniProtKB Q9GZU1
Sequence (Q9GZU1 whole entry L15A/L16A/L577A/L578A, form open): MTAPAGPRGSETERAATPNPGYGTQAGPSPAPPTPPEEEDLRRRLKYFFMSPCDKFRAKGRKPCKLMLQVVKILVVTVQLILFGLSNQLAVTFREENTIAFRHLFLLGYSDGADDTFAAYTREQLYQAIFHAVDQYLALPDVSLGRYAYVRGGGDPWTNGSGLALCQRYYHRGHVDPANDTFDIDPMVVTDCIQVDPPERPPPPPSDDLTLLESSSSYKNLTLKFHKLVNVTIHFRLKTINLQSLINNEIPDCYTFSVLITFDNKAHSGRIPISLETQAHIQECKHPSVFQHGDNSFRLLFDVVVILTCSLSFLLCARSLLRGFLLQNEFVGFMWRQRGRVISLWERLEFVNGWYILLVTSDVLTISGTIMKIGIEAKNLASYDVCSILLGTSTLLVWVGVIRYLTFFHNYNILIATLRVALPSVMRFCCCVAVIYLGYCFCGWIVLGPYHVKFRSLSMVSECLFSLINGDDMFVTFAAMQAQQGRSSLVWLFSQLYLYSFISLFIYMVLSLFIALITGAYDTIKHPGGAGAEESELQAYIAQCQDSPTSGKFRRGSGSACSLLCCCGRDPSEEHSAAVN
testDescription: Fluorescent TRPML1 assay (Fluo4-AM calcium fluorescence, HEK-293 Trex cells)
Format: cell-based
testConditions: Table 3, compounds 201-283
pEC50: −log10 of the molar value.
# pEC50 values compiled below

Worked examples, 3 compounds total:
1) C[C@@H]1CN(c2ncnc3c2c(C2CC2)cn3-c2cccc(Cl)c2)[C@@H](C)CN1C(=O)C(C)(C)C [Compound 206]    > 7.00
2) CC(C)C(=O)N1C[C@H](C)N(c2ncnc3c2c(N2CCC2)cn3-c2cc(F)cc(F)c2)C[C@H]1C [Compound 218]    6.30 to 7.00
3) C[C@@H]1CN(c2ncnc3c2c(C2CCC2)cn3-c2cccc(C(F)(F)F)c2)[C@@H](C)CN1C(=O)C1(F)CC1 [Compound 260]    6.30 to 7.00

So, CC(C)C(=O)N1C[C@H](C)N(c2ncnc3c2c(-c2ccccc2F)cn3-c2cc(C#N)ccn2)C[C@H]1C (single isomer, unassigned) [Compound 281] ? Its pEC50 was 6.30 to 7.00

So, C[C@@H]1CN(c2ncnc3c2c(N2CCC2)cn3-c2cc(C#N)ccn2)[C@@H](C)CN1C(=O)C(C)(C)C [Compound 276] ? Its pEC50 was > 7.00

So, C[C@@H]1CN(c2ncnc3c2c(C(F)(F)F)cn3-c2cccc(Cl)c2)[C@@H](C)CN1C(=O)C(C)(C)C [Compound 204] ? Its pEC50 was > 7.00

So, C[C@H]1CN(C(=O)C(C)(C)C)CCN1c1nccc2c1c(N1CCC1)cn2-c1cccc(F)c1 [Compound 227] ? Its pEC50 was > 7.00

* * *

testedOn: TRPML3 (Homo sapiens)
Construct: expressed in transfected cells
testDescription: Fluorescent TRPML3 assay (as for TRPML1)
Assay type: cell-based
testConditions: Table 3, compounds 101-177
pEC50: −log10 of the molar value.
# pEC50 values compiled below

Worked examples, 6 compounds total:
1. C[C@@H]1CN(c2ncnc3c2c(-c2ccccc2F)cn3-c2cc(C#N)ccn2)CCN1C(=O)C1(F)CC1    > 7.00
2. N#Cc1ccnc(-n2cc(-c3ccccc3F)c3c(N4CCN(C(=O)C5CC5)CC4)ncnc32)c1    6.30 to 7.00
3. CC(C)C(=O)N1CCN(c2ncnc3c2c(-c2ccccc2F)cn3-c2ncc(C#N)s2)[C@@H](C)C1    6.30 to 7.00
4. C[C@H]1CN(C(=O)C(C)(C)C)CCN1c1ncnc2c1c(-c1ccccn1)cn2-c1cc(C#N)ccn1    6.30 to 7.00
5. C[C@H]1CN(C(=O)C2(C)CC2)CCN1c1ncnc2c1c(-c1ccccn1)cn2-c1cc(C#N)ccn1    < 5.70
6. CC(C)C(=O)N1C[C@H](C)N(c2ncnc3c2c(-c2ccccc2F)cn3-c2cc(F)ccn2)C[C@H]1C    > 7.00

So, `C[C@@H]1CN(c2ncnc3c2c(-c2ccccc2F)cn3-c2cc(C#N)ccn2)CCN1C(=O)C(C)(C)F` ? Its pEC50 was > 7.00
